Where do the numbers come from? From patent US10544143B2.

# assayed.target: human TLR8 (Homo sapiens (Human), UniProt Q9NR97)
# Sequence (Q9NR97 27-1041): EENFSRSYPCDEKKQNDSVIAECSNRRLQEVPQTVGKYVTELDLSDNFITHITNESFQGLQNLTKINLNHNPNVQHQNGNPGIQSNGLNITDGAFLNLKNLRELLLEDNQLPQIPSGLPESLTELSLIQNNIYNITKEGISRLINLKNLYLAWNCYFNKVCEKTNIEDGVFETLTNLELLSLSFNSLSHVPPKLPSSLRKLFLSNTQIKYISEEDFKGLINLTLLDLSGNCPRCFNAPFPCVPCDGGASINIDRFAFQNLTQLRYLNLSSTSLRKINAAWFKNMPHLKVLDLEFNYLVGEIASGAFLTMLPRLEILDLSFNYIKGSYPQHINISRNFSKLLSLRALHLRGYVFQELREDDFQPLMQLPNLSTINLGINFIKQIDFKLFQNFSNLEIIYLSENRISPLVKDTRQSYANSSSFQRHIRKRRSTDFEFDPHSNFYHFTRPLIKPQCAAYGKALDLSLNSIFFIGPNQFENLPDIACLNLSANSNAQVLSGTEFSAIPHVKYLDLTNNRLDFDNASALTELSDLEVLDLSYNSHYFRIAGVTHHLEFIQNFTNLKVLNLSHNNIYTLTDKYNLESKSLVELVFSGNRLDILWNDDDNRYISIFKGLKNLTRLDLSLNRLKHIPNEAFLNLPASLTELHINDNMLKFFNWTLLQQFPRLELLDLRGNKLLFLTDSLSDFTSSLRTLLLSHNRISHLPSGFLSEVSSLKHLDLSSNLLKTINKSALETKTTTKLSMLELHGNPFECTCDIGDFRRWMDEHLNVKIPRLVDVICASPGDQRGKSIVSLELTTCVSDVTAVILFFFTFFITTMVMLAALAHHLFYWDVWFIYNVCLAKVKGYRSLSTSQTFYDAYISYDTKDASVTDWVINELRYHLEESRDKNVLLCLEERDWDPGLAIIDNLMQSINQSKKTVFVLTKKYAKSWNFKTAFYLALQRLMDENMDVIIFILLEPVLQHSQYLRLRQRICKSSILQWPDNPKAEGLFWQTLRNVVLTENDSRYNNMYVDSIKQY
# experiment.summary: TLR8 inhibition reporter assay (HEK-Blue SEAP)
# condition.summary: read-out: TLR8 IC50; HEK-Blue cells overexpressing human TLR8, SEAP reporter, R848 15.9 μM
observable: IC50 (nM)

(a) Cc1c(-c2[nH]c3ccc(C4CCC(NC5(C)COC5)CC4)nc3c2C(C)C)cn2ncnc2c1C (centres unmarked) [Example 473]
(b) Cc1c(-c2[nH]c3ccc(CCC4CN(CC5(C)COC5)C4)nc3c2C(C)C)cn2ncnc2c1C
Enquiry: Hi there, can you help? I need to know whether a or b has lower measured IC50. Your answer should be the label of the entry you select.
Return: a
(a: 9.6 nM, b: 14 nM)

(P) Cc1c(-c2[nH]c3ccc(C4CN(CCS(C)(=O)=O)C4)nc3c2C(C)C)cn2ncnc2c1C
(Q) CNC(=O)CN1CCC(c2ccc3[nH]c(-c4cc(C)c(=O)n(C)c4)c(C(C)C)c3n2)CC1
Enquiry: I'd appreciate it if you could identify which of P and Q has the greater IC50. Pick one and reply with its label.
Return: P

----------
# assayed.target: human TLR8 (Homo sapiens (Human), UniProt Q9NR97)
# experiment.summary: TLR8 inhibition reporter assay (HEK-Blue SEAP)
# condition.summary: read-out: TLR8 IC50; HEK-Blue cells overexpressing human TLR8, R848 15.9 μM stimulation, SEAP reporter
observable: IC50 (nM)

Worked set:
compound | assayed.target | IC50 / nM
CNC1CN(c2ccc3[nH]c(-c4cn5ncnc5c(C)c4C)c(C(C)C)c3n2)C1 [Example 20] | human TLR8 (Homo sapiens (Human), UniProt Q9NR97) | 1.3
Cc1c(-c2[nH]c3ccc(N4CCC(N(Cc5ncnn5C)Cc5ncnn5C)CC4)nc3c2C(C)C)cn2ncnc2c1C [Example 76] | human TLR8 (Homo sapiens (Human), UniProt Q9NR97) | 15

(1) Cc1cnc(CNC2CCC(c3ccc4[nH]c(-c5cc(CO)c6ncnn6c5)c(C(C)C)c4n3)CC2)cn1 (stereo not shown) [Example 224]
(2) COc1ncc(CN(Cc2cnc(OC)nc2)C2CCN(c3ccc4[nH]c(-c5cn6ncnc6c(C)c5C)c(C(C)C)c4n3)CC2)cn1 [Example 75]
Enquiry: Between the entries labeled 1 and 2 , whose measured IC50 is lower? When you have decided, please share the label of that item.
Return: 1

(I) Cc1cc(-c2[nH]c3ccc(N4CCNCC4)nc3c2C(C)C)cn2ncnc12 [Example 88]
(II) Cc1c(-c2[nH]c3ccc(N4CCC(N(C)Cc5csnn5)CC4)nc3c2C(C)C)cn2ncnc2c1C [Example 77]
Enquiry: Among I and II , whose measured IC50 is the smaller figure? Give the chosen item's label as your response.
Return: II
(II: 2 nM, I: 91 nM)

(a) Cc1c(-c2[nH]c3ccc(C4CCC(=O)CC4)nc3c2C(C)C)cn2ncnc2c1C [Example 349]
(b) Cc1c(-c2[nH]c3ccc(C4CCC(N(C)C5CC5)CC4)nc3c2C(C)C)cn2ncnc2c1C (stereo not shown) [Example 387]
Enquiry: Among a and b , which shows a numerically higher IC50 result? // return label of chosen record
Return: a
(a: 63 nM, b: 19 nM)

----------
# assayed.target: human TLR7 (Homo sapiens (Human), UniProt Q9NYK1)
# Sequence (Q9NYK1 27-1049): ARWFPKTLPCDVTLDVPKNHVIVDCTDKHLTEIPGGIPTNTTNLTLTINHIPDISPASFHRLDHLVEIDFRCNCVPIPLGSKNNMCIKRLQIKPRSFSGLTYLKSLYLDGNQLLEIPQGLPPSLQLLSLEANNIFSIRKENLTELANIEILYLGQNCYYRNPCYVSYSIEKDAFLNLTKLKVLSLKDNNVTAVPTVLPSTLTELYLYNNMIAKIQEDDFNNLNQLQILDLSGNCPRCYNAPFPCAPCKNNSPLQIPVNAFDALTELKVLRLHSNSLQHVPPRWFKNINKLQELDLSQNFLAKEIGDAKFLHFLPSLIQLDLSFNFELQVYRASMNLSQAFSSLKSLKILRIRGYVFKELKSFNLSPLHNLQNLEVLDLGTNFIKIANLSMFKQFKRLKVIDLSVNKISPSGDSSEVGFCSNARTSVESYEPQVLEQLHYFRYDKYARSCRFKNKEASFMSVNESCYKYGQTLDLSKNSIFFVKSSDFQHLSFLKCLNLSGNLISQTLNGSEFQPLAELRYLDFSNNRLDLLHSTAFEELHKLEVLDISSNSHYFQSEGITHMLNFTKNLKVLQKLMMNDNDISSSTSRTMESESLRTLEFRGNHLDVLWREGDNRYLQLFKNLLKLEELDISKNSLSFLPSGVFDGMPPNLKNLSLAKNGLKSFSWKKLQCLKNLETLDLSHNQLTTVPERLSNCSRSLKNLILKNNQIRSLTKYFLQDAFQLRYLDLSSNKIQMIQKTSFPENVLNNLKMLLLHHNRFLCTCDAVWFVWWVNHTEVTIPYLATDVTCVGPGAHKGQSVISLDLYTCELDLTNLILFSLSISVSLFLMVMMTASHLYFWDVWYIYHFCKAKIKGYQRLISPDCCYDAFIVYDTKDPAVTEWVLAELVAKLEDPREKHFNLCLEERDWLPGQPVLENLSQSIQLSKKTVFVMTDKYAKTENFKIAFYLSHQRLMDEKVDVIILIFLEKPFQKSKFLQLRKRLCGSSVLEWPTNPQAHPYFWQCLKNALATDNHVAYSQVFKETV
# experiment.summary: TLR7 inhibition reporter assay (HEK-Blue SEAP)
# Format: cell-based
# condition.summary: HEK-Blue cells overexpressing human TLR7, SEAP reporter, gardiquimod 7.5 μM
observable: IC50 (nM)

# example entries with known answers
compound | assayed.target | IC50 (nM)
Cc1c(-c2[nH]c3ccc(C4CCC(NC5(CO)COC5)CC4)nc3c2C(C)C)cn2ncnc2c1C (stereo not shown) [Example 483] | human TLR7 (Homo sapiens (Human), UniProt Q9NYK1) | 0.94
Cc1c(-c2[nH]c3ccc(C4CCC(NCC5CCCCS5(=O)=O)CC4)nc3c2C(C)C)cn2ncnc2c1C (stereo not shown) [Example 471] | human TLR7 (Homo sapiens (Human), UniProt Q9NYK1) | 2.8
Cc1c(-c2[nH]c3ccc(C4CCC(N(CC#N)C5COC5)CC4)nc3c2C(C)C)cn2ncnc2c1C (stereo not shown) [Example 441] | human TLR7 (Homo sapiens (Human), UniProt Q9NYK1) | 0.79
Cc1cc2[nH]c(-c3cc(C)c4ncnn4c3)c(C(C)C)c2nc1C1CCN(C(=O)CN(C)C)CC1 [Example 586] | human TLR7 (Homo sapiens (Human), UniProt Q9NYK1) | 0.75
Cc1c(-c2[nH]c3ccc(C4CCC(N(CCC#N)C5CC5)CC4)nc3c2C(C)C)cn2ncnc2c1C (stereo not shown) [Example 428] | human TLR7 (Homo sapiens (Human), UniProt Q9NYK1) | 7.4

(P) COc1cc(-c2[nH]c3ccc(C4CCC(NC5CCOCC5)C4)nc3c2C(C)C)cn2ncnc12 (stereo not shown) [Example 727]
(Q) CCN(CC)C1CCC(c2ccc3[nH]c(-c4cn5ncnc5c(C)c4C)c(C(C)C)c3n2)CC1 (stereo not shown) [Example 411]
Enquiry: Higher IC50: P or Q ? Answer with the label corresponding to your selection.
Return: Q
(Q: 6.3 nM, P: 3.6 nM)

----------
# assayed.target: UniProt:Q9NYK1
# experiment.summary: TLR7 inhibition reporter assay (HEK-Blue SEAP)
# Format: cell-based
# condition.summary: HEK-Blue cells overexpressing human TLR7, SEAP reporter, gardiquimod 7.5 μM
pIC50: −log10 of the molar value.
observable: pIC50

See these solved cases before continuing.
molecule | observable | measured.number
COc1cc(-c2[nH]c3ccc(OC4CCN(C(C)C)CC4)nc3c2C(C)C)cn2ncnc12 | pIC50 | 8.82
Cc1c(-c2[nH]c3ccc(C4CN(C(C)C)C4)nc3c2C(C)C)cn2ncnc2c1C | pIC50 | 8.85
CCCN1CCC(COc2ccc3[nH]c(-c4cc(OC)c5ncnn5c4)c(C(C)C)c3n2)CC1 | pIC50 | 8.64
Cc1c(-c2[nH]c3ccc(C4CCC(NC5CCOCC5)CC4)nc3c2C(C)C)cn2ncnc2c1C (stereo not drawn) [Example 451] | pIC50 | 9.32
COc1cc(-c2[nH]c3ccc(OC4CCC(N(C)C)CC4)nc3c2C(C)C)cn2ncnc12 (stereo not drawn) [Example 610] | pIC50 | 8.82

(a) Cc1cc(-c2[nH]c3ccc(C4CNCCO4)nc3c2C(C)C)cn(C)c1=O (stereo not drawn) [Example 669]
(b) Cc1c(-c2[nH]c3ccc(C4CCN(C5CCOCC5)CC4)nc3c2C(C)C)cn(C)c(=O)c1C
(c) Cc1cc(-c2[nH]c3cc(F)c(C4CCN(CC(=O)N(C)C)CC4)nc3c2C(C)C)cn2ncnc12
(d) Cc1cc(-c2[nH]c3ccc(C4CCNCC4)nc3c2C(C)C)cc(C)n1
Enquiry: Put these in order: smallest pIC50 first, largest last. In plain terms: list the labels in the order you were asked to.
Return: b, a, d, c

----------
# assayed.target: UniProtKB Q9NYK1
# experiment.summary: TLR7 inhibition reporter assay (HEK-Blue SEAP)
# Assay type: cell-based
# condition.summary: HEK-Blue cells overexpressing human TLR7, SEAP reporter, gardiquimod 7.5 μM
pIC50: −log10 of the molar value.
observable: pIC50

molecule | pIC50
Cc1cc(-c2[nH]c3ccc(C4CCNCC4)nc3c2C(C)C)cn2ncnc12 | 9.66
COc1cc(-c2[nH]c3ccc(CCN4CCCCC4)nc3c2C(C)C)cn2ncnc12 | 7.80
COc1cc(-c2[nH]c3ccc(C4CCN(CC(C)(C)O)CC4)nc3c2C(C)C)cn2ncnc12 | 9.15
COc1cc(-c2[nH]c3ccc(C4CCC(NC(C)C)C4)nc3c2C(C)C)cn2ncnc12 (stereo not drawn) | 9.00
Cc1cnc(CN(C)C2CCC(c3ccc4[nH]c(-c5cn6ncnc6c(C)c5C)c(C(C)C)c4n3)CC2)cn1 (stereo not drawn) [Example 414] | 8.29

(a) COc1cc(-c2[nH]c3ccc(OCC4CN(C(C)C)C4)nc3c2C(C)C)cn2ncnc12
(b) Cc1c(-c2[nH]c3ccc(C4CCC(N5CC(S(C)(=O)=O)C5)CC4)nc3c2C(C)C)cn2ncnc2c1C (stereo not drawn) [Example 445]
Enquiry: Would you kindly point out which of a and b has the smaller pIC50 figure? Indicate which entry you chose by stating its label.
Return: a
(a: 8.54, b: 8.82)

----------
# assayed.target: human TLR8 (Homo sapiens (Human), UniProt Q9NR97)
# experiment.summary: TLR8 inhibition reporter assay (HEK-Blue SEAP);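 also: SEAP driven by IFN-β minimal promoter carrying NF-κB and AP-1 sites, compounds dosed 0.05 nM to 50 µM for 22 h, inhibition scaled between agonist-plus-DMSO and reference-inhibitor wells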
# condition.summary: read-out: TLR8 IC50; HEK-Blue human TLR8 cells, R848 15.9 μM
observable: IC50 (nM)

Example entries begin here.
substance.smiles | readout.units | IC50
Cc1c(-c2[nH]c3ccc(N4[C@@H](C)CNC[C@@H]4C)nc3c2C(C)C)cn2ncnc2c1C | nM | 1.3
Cc1c(-c2[nH]c3ccc(N4C[C@H](C)N(CCC(N)=O)C[C@@H]4C)nc3c2C(C)C)cn2ncnc2c1C | nM | 1.5
CCN1CC2(C1)CN(c1ccc3[nH]c(-c4cc(OC)c5ncnn5c4)c(C(C)C)c3n1)C2 | nM | 8.9
Cc1c(-c2[nH]c3ccc(N4CC5(CN(CCCS(C)(=O)=O)C5)C4)nc3c2C(C)C)cn2ncnc2c1C | nM | 4

(I) Cc1c(-c2[nH]c3ccc(N4C[C@@H](C)N(C(=O)CN(C)C(C)(C)C)[C@H](C)C4)nc3c2C(C)C)cn2ncnc2c1C
(II) Cc1c(-c2[nH]c3ccc(N4[C@H](C)CN(CC(N)=O)C[C@H]4C)nc3c2C(C)C)cn2ncnc2c1C
Enquiry: Endpoint returns the identifier whose IC50 is numerically larger, either I or II . Please identify the chosen entry by its label.
Return: II
